Sourced from the nanobody polyreactivity screen of Harvey et al. (2022)

Assay: yeast display, Sf9 membrane polyspecificity reagent, FACS + sequencing; frameworks hold sequencing errors
assay.metric: polyreactivity (PSR sort gate)

- QVQLVESGGGLVQAGGSLRLSCAASGRTFYRYAMGWYRQAPGKERELVAVITSGSRTKYADSVKGRFTISRDNAKNTVYLQMNSLKPEDTAVYYCAARVLALEGKSSGEYWGQGTQVTVSS: high polyreactivity
- QVQLVESGGGLVQAGGSLRLSCAASGRIFRGYAMGWYRQAPGKERELVATISAIGGSTYADSVKGRFTISRDNAKNTVYLQRNSLKPEDTAVYYCNVRKVYRYQYRFEYWGQGTQVTVSS: high polyreactivity
- QVQLQESGGGLVQAGGSLCLSCAASGTIFFDGDMGWNRQAPGKEREFVAAINPGGSAYYADSVKGRLPLAAITHTVYMQMYSLKPEDTAVYYCEAILFDVYGYYYWGQGTNVTVSS: low polyreactivity
- QVQLVESGGGLVQAGGSLRLSCAASGSTFSDYAMGWYRQEPGKERELVAAISSDGSTYYADSVKGRYTISRDNAKNTVYLQMNSLKPEDTAVYYCAKDVILVWPYATGRDFWGQGTQVTVSS: low polyreactivity
- QVQLVESWGGLVQAGGSLRLSCAASGSIFYVNDMGWYRQAPGKERELVAAISSTGSTKYADSVKGRFTISRDNAKNTVYLQMNSLKPEDTAVSYCAKEPGHRFEFDYWGQGTQVTVSS: low polyreactivity
- QVQLVDSGGGLVQAGGSLRLSCAASGFIFPSYVMGWYRQAPGKERELVATISRTGGSTYYADSVKGRYTISRDNAKNTVYLQMNSLKPEYTAVYFCAAYRYSYLQLMDYWGQGTQVTVSS: high polyreactivity
- QVQLVESGGGLVQAGGSLRLSCASSGLTFYKNAMGWYRQAPGKERELVAVISSSGGSTYYADSVKGRFTISRDNAKNTVYLQMNSLKPEDTAVYYGGRDLYTEYRWGRLTYDYWGHGTQVTVSS: low polyreactivity
- QVQLVESGGGLVQAGGSLRLSCAASGRIFVYNVMGWYRQAPGKERELVAAISWGTGSTYADSVKGRFTISRDNAKNTVYLQMNSLKPEDTAVYYCAADSFIPPYDHWGQGTQVTVSS: low polyreactivity
- QVQLVESGGGLVQAGGSLRLSCAASGRMFFRYAMGCYRQAPGKEREFVATITWSGGRTHYADSVKGRFTISRDNAKNTVYLQMNSLKPEDTAVYYCAASYHRYAFDYWGQGTQVTVSS: high polyreactivity
- QVQLVESGGGLVQAGGSLRVSCAASGSTFRVNGMGGYRQAPGKERELLATIRGRGGTTYYADSVKGRFTISRDNAKTTVYLQMNSLKPDDTAVSYCAATNVKRTEGYTPDYDYWGHGTQVTVSS: high polyreactivity
- QVQLVESGGGLVQAGGSLRLSCAASGFTFPYYAMGWYRQAPGKEMELVAVISGSGTRTNYADSVKGRFTISRDNAKNTVYLQMNSLKPEDTEVYYCAAYYTYLHYIYDYWGQGTQVTVSS: high polyreactivity

---

Assay: yeast display, Sf9 membrane polyspecificity reagent, FACS + sequencing; frameworks hold sequencing errors
assay.metric: polyreactivity (PSR sort gate)

- QVQLVESGRGLVQAGGSLRLSCAASGFTFGYYAMGWYRQAPGKERELVAAITSSGGTTYYADSVKGRFTISRDNAKNTVYLQMNSLKPEDTAVYYCAAEAQYYVVDPYGYDYWGQGTQVTVSS: low polyreactivity
- QVQLVESGGGLVQAGGSLRLSCAASGRIFYPYAMGWYRQAPGKEWELVAAINRSAGSTSYADSVKGRFTISRDNAKNTVYLQMKSLKPEDTAVYYCAAQGRWHRHFDYWGQGTQVNVSS: high polyreactivity
- QVQLVESGGGLVQAGGRLRLSCAASGFTFHNNVMGWYRQAPGKERELVATISKSGGSTYYADSVKGRFTISRDHAKNTVYLQMNSLKPEDTAVYYCARRYRDYGRYGYWGQGTQVTVSS: high polyreactivity
- QVQLVESGGGLVQAGGSLRLSCAASGRILPLYAMGWYRQAPGKERELVARIDSGGSTNYADSVKGRFTISRDNAKNTVYLQMNSLKPEDTAVYYCAAVVTAQAFAYFTYGYDYWGQGTQVTVSS: low polyreactivity
- QVQLVESGGGLVQAGGSLRLSCAASGFIFYQYAMGWYRQAPGKERELVAAISRSGGSTYYADSVKGRFTISRDNAKNTVYLQMNSLKPEDTAVYYCNAVYRSIRPRYDYWGQGTQVTVSS: high polyreactivity

---

Assay: yeast display, Sf9 membrane polyspecificity reagent, FACS + sequencing; frameworks hold sequencing errors
assay.metric: polyreactivity (PSR sort gate)

- QLQLQESGGGLVQAGGSLRLSCAASAFIFARNYMGWYRQAPGKERELVAGIGVGASTNYADSVKGRFTISRDNAKNTVYLQMNSLEPEDTAVYYCAVGDTVLGYHYYWGQGTQVTVSN: low polyreactivity
- QVQLVESRGGLVQAGGSHRLSCAASGSIFGYYAMGWYRQAPGNERELVAAIRSTGSTNYADSVKGRFTISRDNAQNSVYLQMNSLKPVDTAVYYCAAGYITWGSGNWVVTPYDYWGQGTQVTVSS: high polyreactivity
- QVQLVESGGGLVQAGGSLRLSCAASGFIFSSNAMGWYRQAPGKERELVARITWSDGSTYYADSVKGRFTISRDNAKNTVYLQMNSLKPEDTAVYYCAKGRDATHYEYYLYSMDYWGQGTQVTVSS: low polyreactivity
- QVQLVDSGGGLVQAGGSLRLSCAASGRTIWRNAMGWYRQAPGKERELVAAIRWSGGRTYADSVKGRFTISRDKAKNTVYLQMNILKPEDTAVYYCNARGLSDWTLKLDYWGQGTQVTVSS: low polyreactivity
- QVQLVESGGGLVQAGGSLRLSCAASGFTFRGYVMGWYRQAPGKERELVAAITNIGTSTYYADSVKGRFTISRDNAKNTVYLQMNSLNPEDTAVYYCAARLRSIFYDWGLGTQVTVSS: low polyreactivity
- QVQLVESGGGLVQAGGSLRLSCAASGGIISMYDIGWYRQAQGKERQLVAAISQSGGSTYYADYVKGRFTISRDNAKNTVYLQMNSLNPEVTGVYYCAADLYLTLIGFIFTGEEYWGQGTQGTVSS: low polyreactivity
- QVQLVESGGGLVQAGGSLRLSCAASGIIFYDYAMGWYRQAPGKERELVAAITSSGGSTYYADSVKGRFTISRDNAKNTVYLQMNSLKPEDTAVYYCADATRGSGRRYDYWGQGTQVTVSS: high polyreactivity
- QVQLVESGGGLVQAGGSLRLSCAASGSIFYVYAMGWYRQAPGKERELVAAISFSGDTTYYADSVKGRFTISRDNAKNTVYLQMNSLKQEDTAVYYCAAEYYYTWVYQYWEMDYWGQGTQVTVSS: low polyreactivity
- QVQLVESGGGLVQAGGSLRLSCAAYGRIFYYNRMGWYRQAPGKERELVADISFSDGSTYYADSVKGRFTISRDIAKNTVYLQMNSLKPEDTAVYYCAAVIGYDYDYWGQVTQVTVSS: low polyreactivity
- QVQLVESGGGLVQAGGSIRISCAASGSIFIIYAMGWYRQATGKEWELVAGIRGRCGSTYYADSVKGRFTISRDNAKNTVYLQMNSLKPEDTAVYYCDASVYRGYNYWGQGTQVTVSW: high polyreactivity
- QVQLVESGGGLVQAGGSLRLSCAASGIIFAIYAMGWYRQAPGKERELVAAITWRGGSTYYADSVKGRFTISRDNAKNTVYLQMNSLKPEDTAVYYCAAVTKSLYGYDYWGQGSQVTVSS: low polyreactivity

---

Test: yeast display, Sf9 membrane polyspecificity reagent, FACS + sequencing; frameworks hold sequencing errors
assay.metric: polyreactivity (PSR sort gate)

• QVQLVESGGGLVQAGGSLRLSCAASGLTFGAYAMGWYRQAPGKERELVAAISDSGGTTYYADSVKGRFTISRDNAKNTVYLQMNSLKPEDTAVYYCAAVKSDVRYRYDYYWGQGTQVTVSS = low polyreactivity
• QVQLVESGGGLVQAGGSLRLSCAATGRIFIAYAMGWYRQAPGKEREFVAAISSGGGSTYYADSVKGRFTISRDNAKNTVYLQMNSLKPEDTAVYYCGAWTLYWSHTTWSYDYWGQGTQGTVSS = low polyreactivity
• QVQLVESGGGLVQAGGSLRLSCAASGFIFYDYAMGWYRQAPGKERELVAAITVDGGTTYYADSVKGRFTISRDNAKNTVYLQMNSLKPEDTAVYYCAADTYYGFDSNYEYWGQGTQVTVSS = low polyreactivity
• QVQLVESGGGVVQAGGSLRLSCAASGRIFRYNAMGWYRQAPGKEREVVAGISFSGGSTYYADSVKGRFTISRDNAKNTVYLQMNSLKPEDTAVYYCNAYGRYSYPTFDYWGQGTQVTVSS = high polyreactivity
• QVQLVESGGGLVQAGGSLRLSCAASGFTFYRYVMGWYRQAPGKERELVAAISWNGGRTYYADSVKGRFTISRDNAKNTVYLQMNSLKPEDTAVYYCAAVPGSRSYGGDYWGQGTQVTVSS = high polyreactivity
• QVQLVESGGGLVQAGGSLRLSCAASGRTFRGNAMGWYRQAPGKERELVAAISRRGVSTYYADSVKGRFTISRDNAKNTVYLQMNSLKPEDTAVYYCNADTSYQRVGGNYWGQGTQVTVSS = high polyreactivity
• QVQLVESGGGLVQAGGSLRLSCAASGFTFPWYAMGWYIQAPGKERELVASISYRGDSTYYADSVKGRFTISRDNAKNTVYLQMNSLKPEDTAVYYCNKRLASYYLPGFDYWGQGTQVTVSS = low polyreactivity
• QVQLEESGGGLVQAGGSLRLSCAASGRIFRPYAMGWYRQAPGKERELVAAISFSGGSTYYADSVKGRFTISRDNAKNTVYLQMNSLKPEDTAVYYCNKDLYRYPGYDYWGQGTQVTVSS = high polyreactivity
• QFQLVESCGGLVHAGGSLRLSCAASGSIFFSYAMGWYRQAPGKERELVAAISSGGSTYYADSVKGRFTISRDNAKNTVYLQMNSLKPEDTAVYYCAARGYRLVPVDFYYWGQGTQVTVSS = low polyreactivity
• QVQLVESGGGLDQAGGSLRLSCAASGSIFFTYVMGWYRQAPGKERQLVAAISSDDITNYADSVKGRFTISRDNAKNTVYLQMNSLKPEDTAVYYCNADTTLYPYYDYGYYDYDYWGQGTQVTVSS = low polyreactivity
• QVQLVESGGGLVQAGGSLRLSCAASGYTFAPYVMGWYRPAPGKERELVARISNNGGSTYYADSVKGRFTISRDNAKNTVYLQMNSLKPEDTAVYYCAADVGLIYFRYYYWGQGTQVTVSS = low polyreactivity
